The entries below are paired with their reported logD at 100 µM.
- Measurement protocol: physchem
- Run conditions: tris hydrochloride 20 mm, pH 7.4
Keep the answer to the number alone.

Solved cases below.
[
  {
    "Compound": "COCCOc1ccn(O)c(=O)c1",
    "Reported result": -0.854
  },
  {
    "Compound": "COc1ccn(O)c(=O)c1 [1-hydroxy-4-methoxypyrid-2-one]",
    "Reported result": -0.824
  }
]

Fill in logD at 100 µM for record O=c1cc(O)ccn1O [1,4-dihydroxypyrid-2-one]
-1.4

----------
The entries below are paired with their reported log Ksol.
- Measurement protocol: log Ksol, affinity for iron(III)
- Type: physicochemical
Keep the answer to the number alone.

[
  {
    "Molecule": "O=C(O)CN(CCN(CC(=O)O)CC(=O)O)CCN(CC(=O)O)CC(=O)O [diethylenetriamine pentaacetic acid, reference compound]",
    "log Ksol": 2.0
  },
  {
    "Molecule": "COc1ccn(O)c(=O)c1 [1-hydroxy-4-methoxypyrid-2-one]",
    "log Ksol": 11.3
  },
  {
    "Molecule": "O=c1cc(O)ccn1O [1,4-dihydroxypyrid-2-one]",
    "log Ksol": 9.9
  }
]

From here, focus on the item given below.
Fill in log Ksol for record CC(=O)N(O)CCCCCNC(=O)CCC(=O)N(O)CCCCCNC(=O)CCC(=O)N(O)CCCCCN [Desferrioxamine, desferrioxamine, reference compound]
6.0
